- tgt: Urokinase (UK) (Homo sapiens, UniProt P00749)
- Type: biochemical
- stated-conditions: TABLE 4, CHA substrates; So = 0.54; pH 8.2; 37° C., 10 minutes; 1000 IU/ml
Assign labels as follows, please: 1 for Selectivity UK, absorbance (O.D.) at 645 nm below 0.001 O.D.; 0 for Selectivity UK, absorbance (O.D.) at 645 nm equal to or exceeding 0.001 O.D..

Ask: Hello, is Selectivity UK, absorbance (O.D.) at 645 nm of the following compound strictly smaller than 0.001 O.D.? "CC(C)OC(=O)C[C@@H](N)C(=O)N[C@@H](Cc1ccccc1)C(=O)N[C@@H](CCCCN)C(=O)Nc1ccc(O)c(C(=O)O)c1"
Reply: 0

Ask: Another compound to check: "NCCCC[C@H](NC(=O)[C@H](Cc1ccccc1)NC(=O)[C@H](N)CCCCNS(=O)(=O)c1cccc2ccccc12)C(=O)Nc1ccc(O)c(C(=O)O)c1"
Reply: 1

Ask: Another compound to check: "CS(=O)(=O)NCCCC[C@@H](N)C(=O)N[C@@H](Cc1ccccc1)C(=O)N[C@@H](CCCCN)C(=O)Nc1ccc(O)c(C(=O)O)c1"
Reply: 1

Ask: Another compound to check: Cc1ccc(C(=O)NCCCC[C@@H](N)C(=O)N[C@@H](Cc2ccccc2)C(=O)N[C@@H](CCCCN)C(=O)Nc2ccc(O)c(C(=O)O)c2)cc1 [NPC-6, HD-Lys(Toc)PheLysCHA.2HCl]
Reply: 1

Ask: Another compound to check: Cc1ccc(S(=O)(=O)Oc2ccc(C[C@@H](N)C(=O)N[C@@H](Cc3ccccc3)C(=O)N[C@@H](CCCCN)C(=O)Nc3ccc(O)c(C(=O)O)c3)cc2)cc1 [NPC-11, HD-Tyr(Tos)PheLysCHA.2HCl]
Reply: 0

Ask: Another compound to check: "NCCCC[C@H](NC(=O)[C@H](Cc1ccccc1)NC(=O)[C@H](N)CC(=O)OC1CCCCC1)C(=O)Nc1ccc(O)c(C(=O)O)c1"
Reply: 0

Ask: Another compound to check: "CC(C)C[C@H](NC(=O)[C@H](N)C(C)C)C(=O)N[C@@H](CCCCN)C(=O)Nc1ccc(O)c(C(=O)O)c1"
Reply: 1
